Measured pIC50, listed per entry for reference.
# System name: Human mTOR (FLAG-TOR) (Homo sapiens, UniProt P42345)
# Construct: FLAG
# Method notes: Human mTOR kinase assay with purified enzyme, DELFIA format
# Type: biochemical
# Condition notes: purified human mTOR enzyme, DELFIA format
# Description: Enzymes are first diluted in kinase assay buffer (10 mM HEPES (pH 7.4), 50 mM NaCl, 50 mM β-glycerophosphate, 10 mM MnCl2, 0.5 mM DTT, 0.25 mM microcystin LR, and 100 mg/mL BSA). To each well, 12 μL of the diluted enzyme is mixed briefly with 0.5 μL test inhibitor or control vehicle dimethylsulfoxide (DMSO). […] 100 μL of DELFIA Enhancement solution is added to each well and the plates are read in a PerkinElmer Victor model plate reader. […]
pIC50: −log10 of the molar value.
Observed property: pIC50

Compound | Meas value
Oc1ccc(-c2nc(N3CC4CCC(C3)O4)c3sccc3n2)cc1 [Example 418] | 7.47
CN1CCN(c2ccc(NC(=O)Nc3ccc(-c4nc(N5CC6CCC(C5)O6)c5cnn([C@H]6CC[C@@H](O)CC6)c5n4)cc3)cc2)CC1 (relative stereo) [Example 405] | 9.48
CCNC(=O)Nc1ccc(-c2nc(N3CC4CCC(C3)O4)c3cnn(C4CCC(N5CCN(C)CC5)CC4)c3n2)cc1 (stereo not shown) [Example 370] | 9.01
CN1CCN(c2ccc(NC(=O)Nc3ccc(-c4nc(N5C[C@H]6C[C@@H]5CO6)c5cnn(CC(F)(F)F)c5n4)cc3)cc2)CC1 [Example 345] | 7.41
Oc1cccc(-c2nc(N3CC4CCC(C3)O4)c3sccc3n2)c1 [Example 417] | 7.21
COC(=O)N1CCC(n2ncc3c(N4C5CCC4COC5)nc(-c4ccc(NC(=O)Nc5ccc(N6CCNCC6)cc5)cc4)nc32)CC1 [Example 364] | 9.36
O=C(Nc1ccc(-c2nc(N3C[C@@H]4C[C@H]3CO4)c3cnn(CC(F)(F)F)c3n2)cc1)Nc1ccc(N2CCOCC2)cc1 [Example 298] | 8.90

Taken from patent US8129371B2.
